I'd be grateful if you could share measured TGI for these entries.
# System: SK-MEL-2 melanoma
# experiment-notes: NCI tumour cell line growth inhibition, 48 h
Give bare numbers, in µM.

Check out these entries, answers already filled in.
# molecule, tested-system, units-label, TGI
measured = [
    ("O=C1NC(c2ccccc2)(c2ccccc2)C(=O)N1CCCCCCN1C(=O)NC(c2ccccc2)(c2ccccc2)C1=O", "SK-MEL-2 melanoma", "µM", 66.2),
    ("COc1ccc(-c2nc(NC(=O)CS(=O)(=O)c3ccc(F)cc3)sc2C)cc1", "SK-MEL-2 melanoma", "µM", 34.1),
]

Give me TGI for each of these molecules, listed below.
1. COc1cc2c(cc1OC)C(CCN)=NCC2
2. COc1ccc2nc3cc(Cl)ccc3c(Sc3ccc(N)cc3)c2c1
3. CCCCC[C@@H]1CCCC2NC(CCCCCO[Si](c3ccccc3)(c3ccccc3)C(C)(C)C)CCC21 (stereo partly specified)
4. COc1ccc(-c2cn(C)c3c2-n2cccc2C3=O)cc1O
5. O=C1c2ccccc2C(=O)c2c1ccc1conc21

Ans.
1. 31.9
2. 27.7
3. 31
4. 55.3
5. 7.14

---

# System: HS 578T breast
# experiment-notes: NCI tumour cell line growth inhibition, 48 h
Provide the recorded TGI for the entries that follow.

Guide cases for TGI, answers given:
# compound, tested-system, TGI
rows = [
    ("COc1cc(/C=C/C(=O)CC(=O)/C=C/c2cc(C)c(O)c(OC)c2)cc(C)c1O", "HS 578T breast", "> 100 µM"),
    ("O=C(CC(C(=O)c1ccsc1)c1cccs1)c1ccccc1 (stereo unspecified)", "HS 578T breast", "> 100 µM"),
    ("Cc1nc2c(Cl)cc(Cl)cc2c2c1CCO2", "HS 578T breast", "> 100 µM"),
    ("Cc1cccc(CNc2c3ccccc3nc3ccccc23)c1", "HS 578T breast", "6.6 µM"),
]

Record TGI per entry; entries follow.
1. CN1CCN(C2=C(Cl)C(=O)c3ccccc3C2=O)CC1
2. COC(=O)c1csc(-c2csc(CCNC(=O)OC(C)(C)C)n2)n1
3. CCN1C(=O)N(CC)C2C1NN=c1s/c(=C3\C(=O)Nc4ccccc43)c(=O)n12 (stereo unspecified)
4. CCOP(=O)(OCC)C(c1ccc(F)cc1)N(C(=O)NC(F)(F)F)c1ccc(F)cc1 (stereo unspecified)
5. O=S1(=O)OCCOS(=O)(=O)C1(F)Cc1ccccc1
6. CC(C)(C)OC(=O)NCCCCCCCCCn1c2c(c3ccccc3c1=O)C(=O)c1ccccc1-2
7. CC(=O)CC[N+](C)(C)C

Ans.
1. 4.84 µM
2. > 100 µM
3. 17.7 µM
4. > 100 µM
5. > 100 µM
6. 43.6 µM
7. > 39.3 µM

---

# Test system: SNB-75 CNS
# experiment-notes: NCI tumour cell line growth inhibition, 48 h
Where a SMILES comes first, the peptide text is derived from it. [ ]: non-standard residue; d: D form. Ava = NCCCCC(=O)O; Mpa = O=C(O)CCS
Can you tell me TGI for the items I'm about to list?

Take a look at these entries with their results.
# compound, measured-metric, recorded-value
records = [
    ("O=C(c1ccccc1)c1nc2c(Cl)ccc(Cl)c2cc1C(Br)Br", "TGI", "2.07 µM"),
    ("COc1cc(/C=C/C(=O)c2c(C)n([O-])c3ccccc3[n+]2=O)cc(OC)c1OC", "TGI", "30.8 µM"),
]

Give TGI for each listed item.
1. COC(=O)c1csc(-c2csc(CCNC(=O)OC(C)(C)C)n2)n1
2. CC(=O)c1cc2c(Br)cccc2oc1=O
3. NCCCn1c(Cl)nc2ccccc21
4. CC(NC(=O)CCS)C(=O)NC(C)C(=O)NC(Cc1c[nH]c2ccccc12)C(=O)NC(Cc1c[nH]cn1)C(=O)NC(CO)C(=O)NC(Cc1c[nH]c2ccccc12)C(=O)NCCCCC(=O)NC(C)C(=O)NC(CCC(N)=O)C(=O)NC(CCCCN)C(=O)NC(C)C(=O)NC(CCCNC(=N)N)C(=O)NC(CCCCN)C(N)=O (stereo not drawn) ([Mpa]AAWHSW[Ava]AQKARK-NH2; configuration not given here)
5. O=[N+]([O-])c1ccc(C[P+]2(c3ccccc3)CCCCC2)cc1 (tested in a mixture with another compound)
6. CNC(=O)[C@H](Cc1c[nH]c2ccccc12)NC(=O)[C@@H](CC(=O)NO)CC(C)C
7. COc1ccc(C2=C(c3ccc(OC)cc3)C(=O)OC2)cc1

Ans.
["> 100 µM", "> 100 µM", "> 100 µM", "> 100 µM", "> 100 µM", "> 25 µM", "> 100 µM"]

For every record below, what is its TGI?
1. CN(C)S(=O)(=O)c1cccc(C(=O)Nc2nc(-c3ccc(F)c(F)c3)cs2)c1
2. Nc1cc(CO)cc(Nc2c3ccccc3nc3ccccc23)c1
3. CCN1C(=O)N(CC)C2C1NN=c1s/c(=C3\C(=O)Nc4ccccc43)c(=O)n12 (stereo not drawn)

Ans.
1. > 60.8 µM
2. 34.5 µM
3. 0.429 µM

Batch of 2 compounds: report TGI for each.
1. CCOC(=O)c1ccc(N=Cc2ccc(N(CCC#N)S(=O)(=O)c3ccccc3)cc2C)cc1
2. COCN1COCN(C)C1=O

Ans.
1. > 100 µM
2. > 100 µM

// input: 4 compounds below; output: TGI for each
1. Nc1[nH]nc(Nc2ccccc2)c1-c1nc2ccccc2s1
2. COc1ccc2[nH]c3ccc4cc[n+](CCN5CCC(C6CCN(CC[n+]7ccc8ccc9[nH]c%10ccc(OC)cc%10c9c8c7)CC6)CC5)cc4c3c2c1
3. Nc1nc(N)nc(CCCCc2nc(N)nc(N)n2)n1
4. N#CC1=C(N)NC(=O)C(C#N)C12Nc1ccccc1S2 (stereo not drawn)

Ans.
10.9 µM
50 µM
> 100 µM
> 100 µM

Where do the numbers come from? From PubChem BioAssay (NCI).
